measurement_description: In vivo pharmacokinetics in rats
Parameters: species or system rat
experimental_setup: male, SD, rat, plasma, iv, 5 mg/kg, intravenously, Mean
Where a name gives a salt, the structure may show the parent alone.
measured_parameter: AUC(0-inf) (ng·h/mL)
# number only, unit ng·h/mL dropped from output

In plain terms, COCCOc1ccc2c(c1)ncn2-c1ccc(NC(=O)Nc2cc(C(C)(C)C)n[nH]2)cc1 [Compound 77 Mesylate] has a documented AUC(0-inf) of 14500

----------
Test system: NCI-H2170 (HER2/ErbB2 amp)
measurement_description: In vitro growth inhibition (GI50), NCI-H2170
Type: cell-based
experimental_setup: Homo sapiens
measured_parameter: GI50

Worked examples follow.
COc1ccc2c(c1)ncn2-c1ccc(NC(=O)Nc2cc(C(C)(C)C)n[nH]2)cc1 ... > 2500 nM
CC(C)(C)c1cc(NC(=O)Nc2ccc(-n3cnc4ccccc43)cc2)[nH]n1 ... > 2500 nM
CC(C)(C)c1cc(N)n(C(=O)Nc2ccc(-n3cnc4ccccc43)cc2)n1 ... > 2500 nM
CC(C)(C)c1cc(NC(=O)Nc2ccc(-n3cnc4cc(OCCO)ccc43)cc2)[nH]n1 ... > 2500 nM
COCCOc1ccc2c(c1)ncn2-c1ccc(NC(=O)Nc2cc(C(C)(C)C)n[nH]2)cc1 ... > 2500 nM
CC(C)(C)c1cc(NC(=O)Nc2ccc(-n3cnc4cc(OCCN5CCOCC5)ccc43)cc2)[nH]n1 ... > 2500 nM
CC(C)(C)c1cc(NC(=O)Nc2ccc(-n3cnc4cc(OCCO)ccc43)cc2)no1 ... > 2500 nM
CC(C)(C)c1cc(NC(=O)Nc2ccc(-n3cnc4cc(OCCN5CCOCC5)ccc43)cc2)no1 ... > 2500 nM

In plain terms, CC(C)(C)c1cc(NC(=O)Nc2ccc(-n3cnc4ccc(OCCN5CCOCC5)cc43)cc2)no1 has a documented GI50 of > 2500 nM

In plain terms, CC(C)(C)c1cc(NC(=O)Nc2ccc(-n3cnc4cc(O)ccc43)cc2)no1 has a documented GI50 of > 2500 nM

----------
measurement_description: In vivo pharmacokinetics in rats
Set-up: species or system rat
experimental_setup: male, SD, rat, plasma, po, 10 mg/kg, orally, 10 mg/kg, individual animals 201-203, read-out: AUC(0-t)
Counter-ions that a name gives are not always drawn.
measured_parameter: AUC(0-t) (ng·h/mL)
# number only, unit ng·h/mL dropped from output

In plain terms, COCCOc1ccc2c(c1)ncn2-c1ccc(NC(=O)Nc2cc(C(C)(C)C)n[nH]2)cc1 [Compound 77 Mesylate] has a documented AUC(0-t) of 6140

----------
measurement_description: In vivo pharmacokinetics in rats
Set-up: species or system rat
experimental_setup: male, SD, rat, plasma, po, 10 mg/kg, orally, 10 mg/kg, individual animals 201-203, read-out: t½ (converted)
Structures can show the parent of a compound that is named as a salt.
measured_parameter: half-life (min)
# number only, unit min dropped from output

In plain terms, COCCOc1ccc2c(c1)ncn2-c1ccc(NC(=O)Nc2cc(C(C)(C)C)n[nH]2)cc1 [Compound 77 Mesylate] has a documented half-life of 222

----------
system: CYP2C8 (Homo sapiens)
Sequence (P10632 whole entry): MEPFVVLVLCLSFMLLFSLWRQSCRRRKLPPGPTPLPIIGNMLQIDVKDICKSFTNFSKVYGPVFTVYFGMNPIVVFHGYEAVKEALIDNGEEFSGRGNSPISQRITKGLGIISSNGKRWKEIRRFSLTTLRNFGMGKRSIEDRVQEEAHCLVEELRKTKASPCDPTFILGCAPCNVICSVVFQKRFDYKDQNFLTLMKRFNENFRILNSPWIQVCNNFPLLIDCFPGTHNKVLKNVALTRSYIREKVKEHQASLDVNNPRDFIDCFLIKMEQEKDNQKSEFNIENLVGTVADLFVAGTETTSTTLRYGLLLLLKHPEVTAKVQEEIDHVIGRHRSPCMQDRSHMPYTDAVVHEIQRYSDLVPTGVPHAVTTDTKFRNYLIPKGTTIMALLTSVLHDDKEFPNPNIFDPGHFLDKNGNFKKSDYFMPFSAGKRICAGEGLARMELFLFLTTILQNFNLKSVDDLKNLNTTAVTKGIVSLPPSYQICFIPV
measured_parameter: IC50

In plain terms, COCCOc1ccc2c(c1)ncn2-c1ccc(NC(=O)Nc2cc(C(C)(C)C)n[nH]2)cc1 [Compound 77] has a documented IC50 of ≥ 50 µM
